- study_target: T1, human VEGF-A165 (VEGF homodimer with each monomer having 165 amino acid residues) (Homo sapiens, UniProt P15692-4, strain, biotin (site not stated; named for Supplementary Table 2 only))
- T1 construct: also called hVEGF-A165; hVEGF; source: bought: Peprotech (catalogue number AF-100-20)
- T1 sequence (P15692 whole entry, looked up, change not shown): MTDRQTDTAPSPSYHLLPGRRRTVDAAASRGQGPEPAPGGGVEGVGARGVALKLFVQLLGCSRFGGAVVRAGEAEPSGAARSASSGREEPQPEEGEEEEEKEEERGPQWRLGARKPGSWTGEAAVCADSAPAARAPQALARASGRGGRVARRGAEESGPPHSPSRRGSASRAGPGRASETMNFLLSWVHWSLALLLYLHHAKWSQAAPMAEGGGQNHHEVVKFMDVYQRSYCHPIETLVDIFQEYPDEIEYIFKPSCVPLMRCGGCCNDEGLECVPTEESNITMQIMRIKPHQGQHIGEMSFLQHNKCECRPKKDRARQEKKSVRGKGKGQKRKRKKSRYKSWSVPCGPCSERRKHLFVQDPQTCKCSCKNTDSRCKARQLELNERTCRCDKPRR
- protocol_summary: SPR; Biacore as per the manufacturer's protocol; kinetic rate constants and affinity of the Fab constructs for biotinylated hVEGF-A165
- condition_notes: both partners purified
property_name: pKd
Reminder that pKd means the negative base-10 logarithm of the concentration expressed in mol/L.

Use the examples below as a reference point.
LAVA25, non-glycosylated variant of LAVA1 (Fab, V domains shown, as the Fab part of the heavy chain of Dm4 (LAVA1); linker; TSG6, human, LINK domain (HABP), the N-linked glycosylation site deleted by substitution of the asparagine residue; as the light chain of Dm4 (LAVA1); The substitution is in Supplementary Data 2) VH: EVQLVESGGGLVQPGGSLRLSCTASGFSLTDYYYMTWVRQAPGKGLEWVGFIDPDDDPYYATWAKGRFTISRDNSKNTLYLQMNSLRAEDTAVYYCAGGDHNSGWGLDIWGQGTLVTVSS VL: EIVMTQSPSTLSASVGDRVIITCQASEIIHSWLAWYQQKPGKAPKLLIYLASTLASGVPSRFSGSGSGAEFTLTISSLQPDDFATYYCQNVYLASTNGANFGQGTKLTVL :: 10.94
LAVA2, protease-resistant variant of LAVA1 (Fab, V domains shown, as the Fab part of the heavy chain of Dm4 (LAVA1); linker; TSG6, human, LINK domain (HABP), with amino acid substitutions around the observed proteolytic sites; as the light chain of Dm4 (LAVA1); The substitutions are in Supplementary Data 2) VH: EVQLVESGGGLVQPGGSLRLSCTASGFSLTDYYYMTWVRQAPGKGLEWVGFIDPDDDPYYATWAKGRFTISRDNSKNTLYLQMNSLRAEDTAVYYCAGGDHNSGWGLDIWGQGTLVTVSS VL: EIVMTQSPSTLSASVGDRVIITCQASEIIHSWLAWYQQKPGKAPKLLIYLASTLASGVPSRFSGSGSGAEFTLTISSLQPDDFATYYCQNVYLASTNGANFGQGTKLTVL :: 11.34

Reported pKd of LAVA46, variant of LAVA1 with an additional disulfide bond in the LINK domain (Fab, V domains shown, as the Fab part of the heavy chain of Dm4 (LAVA1); linker; TSG6, human, LINK domain (HABP), with cysteine residues introduced for an additional disulfide bond and substitutions at and around the observed digestion sites; as the light chain of Dm4 (LAVA1); The substitutions are in Supplementary Data 2) VH: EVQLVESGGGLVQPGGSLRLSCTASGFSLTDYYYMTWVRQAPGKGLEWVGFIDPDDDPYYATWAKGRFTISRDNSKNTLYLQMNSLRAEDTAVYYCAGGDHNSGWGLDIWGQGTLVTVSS VL: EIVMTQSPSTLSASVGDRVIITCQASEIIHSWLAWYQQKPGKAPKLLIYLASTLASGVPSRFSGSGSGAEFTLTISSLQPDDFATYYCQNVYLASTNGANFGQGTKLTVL : 11.38

Memo: LAVA45, variant of LAVA1 with an additional disulfide bond in the LINK domain (Fab, V domains shown, as the Fab part of the heavy chain of Dm4 (LAVA1); linker; TSG6, human, LINK domain (HABP), with cysteine residues introduced for an additional disulfide bond and substitutions at and around the observed digestion sites; as the light chain of Dm4 (LAVA1); The substitutions are in Supplementary Data 2) VH: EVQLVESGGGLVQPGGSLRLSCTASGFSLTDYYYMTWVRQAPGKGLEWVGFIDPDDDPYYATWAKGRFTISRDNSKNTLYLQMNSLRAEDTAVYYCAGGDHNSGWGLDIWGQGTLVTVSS VL: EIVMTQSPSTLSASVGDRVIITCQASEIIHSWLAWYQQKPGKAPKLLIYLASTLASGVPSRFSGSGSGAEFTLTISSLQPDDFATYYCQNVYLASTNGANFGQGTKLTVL , reported pKd: 11.51

binder LAVA24, non-glycosylated variant of LAVA1 (Fab, V domains shown, as the Fab part of the heavy chain of Dm4 (LAVA1); linker; TSG6, human, LINK domain (HABP), the N-linked glycosylation site deleted by substitution of the asparagine residue; as the light chain of Dm4 (LAVA1); The substitution is in Supplementary Data 2) VH: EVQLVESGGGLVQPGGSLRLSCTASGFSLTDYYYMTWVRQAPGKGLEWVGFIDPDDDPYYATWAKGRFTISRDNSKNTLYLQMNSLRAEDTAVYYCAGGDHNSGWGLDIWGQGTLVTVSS VL: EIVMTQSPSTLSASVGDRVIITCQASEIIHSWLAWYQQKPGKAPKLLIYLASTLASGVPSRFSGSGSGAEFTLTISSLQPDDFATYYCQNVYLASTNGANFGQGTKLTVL , pKd observed: 11.05
